Assay: NCI Yeast Anticancer Drug Screen. Data for the mec2-1 strain (AID 157)
Conditions: S. cerevisiae mec2-1 strain, at 50.0 µM (retest, dose inferred, filed as 5.0), stronger effect = higher value
This is part of a sample that, as a whole, favours compounds with a hit. Of some 79,000 tested, about 15% had one in any assay.
The threshold is inclusive: growth inhibition of exactly 80% counts as 1 (yes); values below receive 0 (no).

Some entries whose results are on file:
compound	class
ONC(=Nc1ccccc1)c1ccccc1	0 (no)
COc1cccc(OC)c1C(=O)/C=C/c1ccccc1	0 (no)
O=C(CCCSCCCC(=O)NNc1ccccc1)NNc1ccccc1	1 (yes)
O=C(Oc1cc([N+](=O)[O-])ccc1Cl)Oc1cc([N+](=O)[O-])ccc1Cl	1 (yes)
NC(=O)C(=O)N/N=C/c1ccc([N+](=O)[O-])o1	0 (no)
Cc1ccccc1C1SCc2nc3ccccc3n21 (configuration not stated)	0 (no)
O=CCCCc1cc2c(cc1Br)CCC2	0 (no)
Cc1ccc(NN(C)c2ccc(C)cc2)cc1	0 (no)
O=C1c2ccccc2C(O)(c2ccccc2)N1c1ccc([N+](=O)[O-])cc1 (configuration not stated)	1 (yes)
O=C1/C(=C/c2ccc([N+](=O)[O-])cc2)Sc2scc(-c3cccc([N+](=O)[O-])c3)[n+]21	1 (yes)

Q: Does CCOc1ccccc1/C=N/Nc1nnc(N/N=C/c2ccccc2OCC)c2ccccc12 have a reported growth inhibition of at least 80%?
Ans: 0 (no)

Q: Does CCC(C)CNCCCCCNc1cc(OC)cc2cccnc12 (configuration not stated) have a reported growth inhibition of at least 80%?
Ans: 0 (no)

Q: Does Oc1cccc2ccc(/C=C/c3ccccn3)nc12 have a reported growth inhibition of at least 80%?
Ans: 1 (yes)

Q: Does CC(=O)OC12CCC3C4CC=C5CC(O)CCC5(C)C4C(=O)C3C1(C)N1CC(C)CC(O)C1C2C (configuration not stated) have a reported growth inhibition of at least 80%?
Ans: 0 (no)

Q: Does CC(C)CCCC(C)C1CCC2C3CCC4=CC(O)CCC4(C)C3CCC12C (configuration not stated) have a reported growth inhibition of at least 80%?
Ans: 1 (yes)

Q: Does CC(C)(C)C(=O)CC(=O)C(F)(F)C(F)(F)C(F)(F)F.CC(C)(C)C(=O)CC(=O)C(F)(F)C(F)(F)C(F)(F)F.CC(C)(C)C(=O)CC(=O)C(F)(F)C(F)(F)C(F)(F)F.[Gd] have a reported growth inhibition of at least 80%?
Ans: 1 (yes)

Q: Does CCOC(=O)C(C(=O)O)(C(c1ccccc1)c1ccccc1)C(c1ccccc1)c1ccccc1 have a reported growth inhibition of at least 80%?
Ans: 1 (yes)

* * *

Experiment: NCI Yeast Anticancer Drug Screen. Data for the sgs1 mgt1 strain (AID 161);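 note: 0% = growth of cultures given vehicle only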
Details: S. cerevisiae sgs1 mgt1 strain, at 5.0 µM (retest, dose inferred, filed as 0.5), stronger effect = higher value
Description: Growth inhibition of yeast strains with defined genetic alterations is measured as a screen for potential anti-cancer activity. Selected strains with alterations in DNA damage repair or cell cycle control were exposed to compounds and growth inhibition was measured relative to vehicle treated controls. The strain used in this assay is sgs1 mgt1
This is part of a sample that, as a whole, favours compounds with a hit. Of some 79,000 tested, about 15% had one in any assay.
Exercise: for every item that follows, state its recorded growth inhibition.
Numbers only, in %.

Here's what some known entries look like.
molecule	readout value
Cn1ncc2c(NCc3ccc(Cl)cc3)nc(Cl)nc21	8
Cc1cc(=O)c2c(ccc3cc4ccccc4cc32)[nH]1	-16
CC12CC[C@@H](C(C)(C)O)C1[C@@H](O)CC1(C)C2CCC2[C@@]3(C)CC[C@H](O)C(C)(C)C3C(O)C[C@]21C (stereo partly specified)	9
CCOC(=O)c1nc(SC)sc1NC(=O)c1ccccc1Cl	4
CC(C)OC(=S)SSSC(=S)OC(C)C	9
O=[N+]([O-])c1ccc(-c2ccc(-c3csc(Nc4ccccc4)n3)o2)cc1	44
CCN(CC)C(=S)N=Nc1c(O)[nH]c2ccccc12	81
CCCCCCCCCCCCCC[N+]1(CC)CCCCC1	99

Please state growth inhibition for every molecule in the list that follows.
1. CCC(=O)NC1=CCC(C(C)(C)C)CC1 (stereo unspecified)
2. CC/C(Cl)=N\OC(=O)Nc1ccc(F)c(Cl)c1
3. O=C1c2ccccc2-c2cc3ccccc3nc21
4. CC1CCN(C(=S)NNC(C)c2cc3ccccc3cn2)CC1 (stereo unspecified)

Ans:
1: 1; 2: 36; 3: 15; 4: 80

Please state growth inhibition for every molecule in the list that follows.
1. COc1cc(Nc2ccc(O)cc2)c2ncccc2c1
2. c1ccc(C2=NCCC(c3ccccc3)S2)cc1 (stereo unspecified)
3. CC(C)(S[S-])S[S-].[Ti].[c-]1[c-][c-][cH-][c-]1.[c-]1[c-][c-][cH-][c-]1
4. CCCCCCCCCC1OCC(C)O1 (stereo unspecified)

Ans:
1: 16; 2: -3; 3: 10; 4: -2

* * *

Experiment: NCI Yeast Anticancer Drug Screen. Data for the sgs1 mgt1 strain (AID 161);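 note: 0% = growth of cultures given vehicle only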
Settings: S. cerevisiae sgs1 mgt1 strain, at 5.0 µM (retest, dose inferred, filed as 0.5), stronger effect = higher value
The panel holds about 79,000 compounds, 15% with a hit somewhere; the sample as a whole holds those more often.
assay readout: growth inhibition (%)
Numbers only, in %.

Here's what some known entries look like.
compound	readout value
O=C(CSSCC(=O)Nc1ccccc1)Nc1ccccc1	1
CCC(c1ccc(OC)cc1)C(CC)c1ccc(O)c(CN(C)C)c1 (stereo not given)	-4
O=C(O)c1c2c(cc3c1CC1(Cc4ccccc4C1=O)C3)CCC2 (stereo not given)	20

Please state growth inhibition for every compound in the list that follows.
1. CC/C(=C(/CC)c1ccc([O-])cc1)c1ccc([O-])cc1.CC/C(=C(\CC)c1ccc([O-])cc1)c1ccc([O-])cc1.O=C([CH-]C(=O)c1ccccc1)c1ccccc1.O=C([CH-]C(=O)c1ccccc1)c1ccccc1.O=C([CH-]C(=O)c1ccccc1)c1ccccc1.O=C([CH-]C(=O)c1ccccc1)c1ccccc1.[Ti+4].[Ti+4]
2. CC(=O)O/N=C1/CCC2C3CC=C4CC(OC(C)=O)CCC4(C)C3CCC12C (stereo not given)
3. O=C(Nc1ccc(Cl)cc1)Nc1nnc(/C=C/c2ccc(Cl)c(Cl)c2)o1
4. CC1(c2ccccc2)Nc2ccccc2C1=Nc1ccccc1 (stereo not given)
5. O=C1C=CC(=O)c2c(O)c(N3CCC[C@@H]3CO)c(Cl)c(O)c21
6. CCC(C)c1ccc(O)c(C(C)c2ccccc2)c1 (stereo not given)

Ans:
1. 97
2. 8
3. -1
4. -3
5. 25
6. 19

Please state growth inhibition for every compound in the list that follows.
1. CCN(CC)CCOc1ccc(-c2cc(-c3ccccc3)nc(N)n2)cc1
2. N#CC1C(=O)NC(=O)C(C#N)C1c1ccc(Cl)c(Cl)c1 (stereo not given)
3. O=c1[nH]c2ccc([N+](=O)[O-])cc2c2ccc(Cl)cc12
4. O=C(O)CCC(=O)c1ccc2c(c1)CCCC2
5. CC(C)CCCC(C)C1CCC2C3CC=C4CC(OC(=O)Nc5ccc(S(=O)(=O)c6ccc(F)cc6)cc5)CCC4(C)C3CCC12C (stereo not given)
6. Clc1ccc(C2=NCON=C2c2ccc(Cl)cc2)cc1
7. CCC[n+]1ccnc2ccccc21
8. Cc1ccccc1NC(=O)Cc1csc(N=Nc2c(O)[nH]c3ccccc23)n1

Ans:
1. 44
2. 1
3. -11
4. -5
5. 0
6. 10
7. -4
8. 1

* * *

Test: NCI Yeast Anticancer Drug Screen. Data for the mlh1 rad18 strain (AID 175)
Details: S. cerevisiae mlh1 rad18 strain growth inhibition; at 50.0 µM
About 79,000 compounds went through this panel and 15% of them were active in at least one assay; those are over-represented in the sample as a whole. The source made the active and inactive calls. Rule as the data show it: active = growth inhibition above about 70%; inactive = the rest.
Log the outcome using a class from true (1) = active, false (0) = inactive

Some entries whose results are on file:
compound	class
COC(=O)c1ccc(-c2ccccc2)cc1	true (1)
O=C(O)CN1CCNCCN(CC(=O)O)CCNCC1	false (0)
CC(C)CCCC(C)C1CCC2C3CCC4=CC(O)CCC4(C)C3CCC12C (configuration not stated)	true (1)
NC(=S)C(=S)N/C=C/c1nc2ccccc2[nH]c1=O	true (1)
COC(=O)c1cc(-c2ccc(C)cc2)c2c(=O)n(-c3ccccc3)[nH]c2n1	true (1)

Q: Outcome? Clc1nc2cc3nc(Cl)c(Cl)nc3cc2nc1Cl
Ans: false (0)

Q: Outcome? CCCCCCCCCCCCCCCCCC[n+]1cccc(C(=O)N2CCOCC2)c1
Ans: true (1)

* * *

Exercise: for every item that follows, state its recorded growth inhibition.
Test: NCI Yeast Anticancer Drug Screen. Data for the mec2-1 strain (AID 157)
Conditions: S. cerevisiae mec2-1 strain, at 5.0 µM (retest, dose inferred, filed as 0.5), stronger effect = higher value
Compounds without any hit were thinned out: in the full panel of roughly 79,000, 15% have a hit. Activity calls are given as the source filed them. Cut-off read from the data, not from the text of the source: active = growth inhibition above about 70%; inactive = the rest.

compound	readout value
C/C(=N/NC(=S)Nc1cccc(Cl)c1)c1ccccn1	91% (active)
FC(F)(F)c1ccc(NC(=S)SCc2ccc(Cl)cc2)cc1	5% (inactive)
CCCCCCCCCCC(NC(C)=O)(C(=O)OCC)C(=O)OCC	-3% (inactive)

Please state growth inhibition for every compound in the list that follows.
1. CC(C)C(=O)N1Cc2cc(Cl)cc(Cl)c2OC(=O)c2ccccc21
2. Cc1cc(N=[N+]=[N-])c2cc(C3CCCCC3)ccc2n1

Ans:
1. -1% (inactive)
2. 8% (inactive)

Please state growth inhibition for every compound in the list that follows.
1. COC1C(=[N+]=[N-])C(=O)NC(=O)N1C1OC(COC(c2ccccc2)(c2ccccc2)c2ccccc2)C(O)C1O (stereo not drawn)
2. O=C(Oc1cc([N+](=O)[O-])ccc1Cl)Oc1cc([N+](=O)[O-])ccc1Cl
3. CN(C)C=Nc1c2ccccc2nc2ccccc12

Ans:
1. 10% (inactive)
2. 0% (inactive)
3. 23% (inactive)
